assay: Metabolic stability in rat hepatocytes assessed as hepatic clearance by serum incubation method; type: ADME, cell-based, Liver, Hepatocyte
parameter: CLhep predicted (mL/min/kg)

C[C@@H]1NC(c2cc(C#N)ccn2)=NC1(c1ccc(F)nc1)c1ccc(F)nc1 52
COc1ccc([C@]2(c3ccc(F)cc3)N=C(c3cc(C#N)ccn3)N[C@H]2C)cn1 44
C[C@@H]1NC(c2cc(Cl)ccn2)=N[C@@]1(c1ccc(F)cc1)c1ccc(F)nc1 58
C[C@@H]1NC(c2ccnc(C#N)c2)=N[C@@]1(c1ccc(F)cc1)c1ccc(F)nc1 13
C[C@@H]1NC(c2cnccn2)=NC1(c1ccc(F)cc1)c1ccc(F)cc1 57
N#Cc1ccnc(C2=NC(c3ccc(F)cc3)(c3ccc(F)cc3)[C@H](CO)N2)c1 11
C[C@@H]1NC(c2cccc(S(C)(=O)=O)c2)=N[C@@]1(c1ccc(F)cc1)c1ccc(F)nc1 6
Fc1ccc(C2(c3ccc(F)cc3)CNC(c3cnccn3)=N2)cc1 51
